# TESTED ON: human galectin-8C (C-terminal domain) (Homo sapiens, UniProt O00214)
# Construct: 4N (N-terminal domain) 4C (C-terminal domain), 7, 8N, 8C, 9N, and 9C; made in house
# Sequence (O00214 187-317 limits assumed): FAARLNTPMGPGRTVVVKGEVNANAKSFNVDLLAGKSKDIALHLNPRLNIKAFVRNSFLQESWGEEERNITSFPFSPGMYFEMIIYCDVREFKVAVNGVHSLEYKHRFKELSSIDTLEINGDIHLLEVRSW
# TEST SUMMARY: competitive fluorescence polarization assay, galectin-8C
# Type: binding
# RUN PARAMETERS: Table 1, average and SEM, PBS
pKd: −log10 of the molar value.
Below, each entry is listed alongside its reported pKd.

Use these answered entries as a reference point.
item_smiles=CO[C@@H]1O[C@H](CO)[C@H](O)[C@H](CO)[C@H]1O parameter=pKd reported_measurement="< 2.40"
item_smiles=CO[C@@H]1O[C@H](CO)[C@H](O)[C@@H](CO)[C@H]1O parameter=pKd reported_measurement=2.43
item_smiles=CO[C@@H]1O[C@H](CO)[C@H](O)[C@H](COc2cccc(C(F)(F)F)c2)[C@H]1O parameter=pKd reported_measurement="< 2.40"
item_smiles=COC[C@H]1[C@@H](O)[C@@H](CO)O[C@@H](OC)[C@@H]1O parameter=pKd reported_measurement="< 2.40"

// next entry
Q: Entry `CO[C@@H]1O[C@H](CO)[C@H](O)[C@@H](CNC(=O)c2ccccc2)[C@H]1O` needs its pKd filled in; supply it.
A: < 2.40
